# Measured Target: recombinant human SAE enzyme (Homo sapiens, UniProt Q9UBT2)
# Test Details: SAE HTRF Enzyme Assay
# Format: biochemical
# Cond: compound concentration 0.111 μM; read-out: Percent Inhibition
Outcome Measure: inhibition at 0.111 µM (%)
Use % as the unit, but write only the number.

As a guide, the following entries are already answered.
NS(=O)(=O)OC[C@H]1C[C@@H](Nc2ncncc2C(=O)c2ccn(Cc3c(F)ccc(F)c3F)n2)C[C@@H]1O = 98
NS(=O)(=O)OC[C@@H]1C[C@@H](Nc2ncncc2C(=O)c2ccn(Cc3cccc(Br)c3)n2)C[C@@H]1O = 99
NS(=O)(=O)OC[C@H]1C[C@@H](Nc2ncncc2C(=O)c2ccn(Cc3ccc(F)o3)c2)[C@@H](F)[C@@H]1O = 99
NS(=O)(=O)OC[C@H]1C[C@@H](Nc2ncncc2C(=O)c2ccn(Cc3cccc(OC(F)(F)F)c3)c2)C[C@@H]1O = 97
COC(C)(C)C#CCn1ccc(C(=O)c2cncnc2N[C@@H]2C[C@H](COS(N)(=O)=O)[C@@H](O)C2)n1 = 54

Okay, now this compound:
// inhibition at 0.111 µM value for NS(=O)(=O)OC[C@H]1C[C@@H](Nc2ncncc2C(=O)c2ccn(Cc3ccc(Cl)c(OC(F)(F)F)c3)n2)C[C@@H]1O : 94

* * *

Parameter: inhibition at 0.111 µM. Scope: all listed entries.
# Measured Target: recombinant human SAE enzyme (Homo sapiens, UniProt Q9UBT2)
# Test Details: SAE HTRF Enzyme Assay
# Format: biochemical
# Cond: compound concentration 0.111 μM; read-out: Percent Inhibition
Please answer in the form of a number followed by its unit of measurement.

Some compounds with recorded inhibition at 0.111 µM:
NS(=O)(=O)OC[C@H]1C[C@@H](Nc2ncncc2C(=O)c2ccn(CCc3cccc4ccccc34)n2)[C@H](O)[C@@H]1O = 99%
NS(=O)(=O)OC[C@H]1C[C@@H](Nc2ncncc2C(=O)c2ccn(Cc3ccc(Cl)cc3F)n2)C[C@@H]1O = 92%

// assay recombinant human SAE enzyme (Homo sapiens, UniProt Q9UBT2), entry COc1cccc(Cn2ccc(C(=O)c3cncnc3N[C@@H]3C[C@H](COS(N)(=O)=O)[C@@H](O)[C@@H]3F)c2)n1 , inhibition at 0.111 µM value = 98%

Value sought: inhibition at 0.111 µM, system recombinant human SAE enzyme (Homo sapiens, UniProt Q9UBT2), item N#Cc1ccccc1Cn1ccc(C(=O)c2cncnc2N[C@@H]2C[C@H](COS(N)(=O)=O)[C@@H](O)C2)n1 . Result: 91%

The compound CCC(c1cccc(Br)c1)n1ccc(C(=O)c2cncnc2N[C@@H]2C[C@H](COS(N)(=O)=O)[C@@H](O)[C@@H]2F)c1 (single isomer, unassigned) , tested on recombinant human SAE enzyme (Homo sapiens, UniProt Q9UBT2), showed inhibition at 0.111 µM of 99%

Hey, recombinant human SAE enzyme (Homo sapiens, UniProt Q9UBT2) data for COc1cc(Cn2ccc(C(=O)c3cncnc3N[C@@H]3C[C@H](COS(N)(=O)=O)[C@@H](O)[C@@H]3F)c2)ccc1F : inhibition at 0.111 µM came out at 98%

* * *

pIC50 values for the molecules below.
# Measured Target: recombinant human SAE enzyme (Homo sapiens)
# Sequence (Q9UBT2 1-640): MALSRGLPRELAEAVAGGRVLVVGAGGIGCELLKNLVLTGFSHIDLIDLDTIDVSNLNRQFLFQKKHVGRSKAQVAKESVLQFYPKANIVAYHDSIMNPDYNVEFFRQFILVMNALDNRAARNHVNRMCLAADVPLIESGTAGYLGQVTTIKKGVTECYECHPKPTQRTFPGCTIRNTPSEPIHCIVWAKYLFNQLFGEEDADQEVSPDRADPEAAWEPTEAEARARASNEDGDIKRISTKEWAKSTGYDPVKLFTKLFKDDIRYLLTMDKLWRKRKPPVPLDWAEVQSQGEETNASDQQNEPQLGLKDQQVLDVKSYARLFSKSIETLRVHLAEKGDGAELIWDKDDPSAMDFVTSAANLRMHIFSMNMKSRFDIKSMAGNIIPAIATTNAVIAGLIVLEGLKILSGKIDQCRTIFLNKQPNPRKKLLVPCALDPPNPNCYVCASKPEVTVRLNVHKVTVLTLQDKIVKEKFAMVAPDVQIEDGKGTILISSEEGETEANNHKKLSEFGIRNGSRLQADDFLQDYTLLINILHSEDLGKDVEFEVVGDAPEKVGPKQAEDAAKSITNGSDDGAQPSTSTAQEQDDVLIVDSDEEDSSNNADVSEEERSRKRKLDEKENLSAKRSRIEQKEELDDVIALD
# Sequence (Q9UBE0 1-346 partner): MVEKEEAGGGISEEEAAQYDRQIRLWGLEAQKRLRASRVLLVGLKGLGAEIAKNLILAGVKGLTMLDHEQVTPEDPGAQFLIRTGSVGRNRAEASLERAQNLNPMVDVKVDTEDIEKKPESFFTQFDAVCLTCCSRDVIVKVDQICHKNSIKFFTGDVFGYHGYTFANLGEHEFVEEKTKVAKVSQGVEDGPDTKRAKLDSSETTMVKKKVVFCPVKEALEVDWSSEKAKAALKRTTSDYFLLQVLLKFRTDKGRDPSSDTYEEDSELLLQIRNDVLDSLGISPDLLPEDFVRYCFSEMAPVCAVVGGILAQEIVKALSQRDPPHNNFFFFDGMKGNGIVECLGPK
# Test Details: SAE HTRF Enzyme Assay
# Cond: class symbols A-C
pIC50: −log10 of the molar value.

NS(=O)(=O)OC[C@H]1C[C@@H](Nc2ncncc2C(=O)c2ccn(Cc3cccc(Br)n3)n2)[C@H](O)[C@@H]1O on recombinant human SAE enzyme (Homo sapiens) gives pIC50 = > 8.00

NS(=O)(=O)OC[C@H]1C[C@@H](Nc2ncncc2C(=O)c2ccn(Cc3ccc(F)cc3Cl)n2)[C@H](O)[C@@H]1O tested on recombinant human SAE enzyme (Homo sapiens) gave pIC50: > 8.00

Lab entry: recombinant human SAE enzyme (Homo sapiens) assay, molecule NS(=O)(=O)OC[C@H]1C[C@@H](Nc2ncncc2C(=O)c2ccn(Cc3ccc(F)c(OC(F)(F)F)c3)c2)C[C@@H]1O , pIC50 = > 8.00

Cited source: patent US9695154B2
